Value source: ChEMBL document CHEMBL4840329

- Test system: Pseudomonas aeruginosa
- Test Description: Anti-MDR bacterial activity against Pseudomonas aeruginosa 15690 assessed as inhibition of bacterial growth incubated for 18 hrs by microplate reader analysis
- Format: functional
- Measurement Context: Pseudomonas aeruginosa, 15690, 18 h, read-out: MIC
Recorded Endpoint: MIC (µg/mL)

Answered cases to consult:
Prompt: Note MIC for the molecule shown: C[C@@]1(C(=O)O)[C@@H](O)CC[C@]2(C)c3cc4c(cc3CC[C@@H]12)[nH]c1c(-n2c3ccccc3c3cc5c(cc32)CC[C@H]2[C@](C)(C(=O)O)[C@@H](O)CC[C@]52C)cccc14 (stereo in doubt; 1)
Completion: 1.56

Prompt: Note down MIC recorded for CN(C)[C@@H]1C(O)=C(C(N)=O)C(=O)[C@@]2(O)C(O)=C3C(=O)c4c(O)cccc4[C@@](C)(O)[C@H]3C[C@@H]12
Completion: 12.5

a. C[C@@]1(C(=O)O)[C@@H](O)CC[C@]2(C)c3cc4c5ccccc5n(-c5c6c(cc7c5[nH]c5ccccc57)[C@@]5(C)CC[C@H](O)[C@@](C)(C(=O)O)[C@@H]5CC6)c4cc3CC[C@@H]12 (stereo in doubt; 3)
b. C[C@@]1(C(=O)O)[C@@H](O)CC[C@]2(C)c3cc4c(cc3CC[C@@H]12)[nH]c1ccc(-n2c3ccccc3c3cc5c(cc32)CC[C@H]2[C@](C)(C(=O)O)[C@@H](O)CC[C@]52C)cc14
Prompt: API: POST /compare with a and b ; response names the item with higher MIC. Provide the label of your selected option as the answer.
Completion: a
